procedure.details: chemical genetic growth profiling, strain panel (AID 1159580);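 also: tested at 20 µM; growth read once vehicle control cultures reached saturation at 30 °C; 1 = growth at the plate median or of vehicle wells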
run.parameters: S. cerevisiae deletion strains, growth OD, locus YER111C, strain swi4, stronger effect = lower value
Hit rate of the full screen: of about 5,500 compounds, about 2,000 (36%) were called active. Not shown: some 18% with an inconclusive outcome. The list shows a part of the results.
Some compounds, each annotated with its measured normalized growth.
attribute.measured: normalized growth

INSERT INTO measurements (compound, result_value) VALUES
  ('CCC1C(=O)OCC1Cc1cncn1C (stereo unspecified)', 1.02),
  ('CC1(C)C=Cc2cc3ccc(=O)oc3cc2O1', 0.958),
  ('COc1cc2c(cc1O)CCNC2C (stereo unspecified)', 0.975),
  ('O=C(O)[C@H](O)[C@@](O)(Cc1ccc(O)cc1)C(=O)O', 1),
  ('COC(=O)C[C@H]1C(C)(C)[C@@H](O)[C@@H]2CC3=C4C=C(OC)O[C@@H](c5ccoc5)[C@]4(C)CCC3[C@@]1(C)C2=O (stereo partly specified)', 1),
  ('Cc1cc(C(C)(C)C)c(O)c(C)c1CC1=NCCN1', 1);

====

procedure.details: chemical genetic growth profiling, strain panel (AID 1159580)
run.parameters: S. cerevisiae deletion strains, growth OD, locus YMR058W, strain fet3
The whole screen tested about 5,500 compounds, of which about 2,000 (36%) were called active. Inconclusive results (about 18%) are left out. Rule as the data show it: active = normalized growth mostly below about 0.91 (no sharp cut-off); inconclusive = no clear call, values can overlap the other calls; inactive = mostly above about 0.92. Some of the results follow. Where a SMILES comes first, the peptide text is derived from it. Bridges are numbered along the chain shown (N, C = ends). [ ]: non-standard residue; d: D form. The star is where a group is joined. Octanoyl(6-Me) = CCC(C)CCCCC(=O)*; Dab = NCC[CH](N)C(=O)O
Classes used: y = active, n = inactive

INSERT INTO assay_data (molecule, label) VALUES
  ('COc1cc2c(cc1O)CCNC2C (stereo not given)', 'n'),
  ('CCOc1ccc(NC(C)=O)cc1', 'n'),
  ('COc1ccc(C(=O)c2ccc(O)cc2)c(O)c1O', 'n'),
  ('CC(=O)OCC1=C(C(=O)O)N2C(=O)[C@@H](NC(=O)CCCC(N)C(=O)O)C2SC1 (stereo not given in full)', 'n'),
  ('O=C(O)c1cc(=O)c2cccc(O)c2[nH]1', 'n'),
  ('COc1cnc(NS(=O)(=O)c2ccc(N)cc2)nc1', 'n'),
  ('CCNc1nc(Cl)nc(NCC)n1', 'n'),
  ('CCC(C)CCCCC(=O)NC(CCN)C(=O)NC(C(=O)NC(CCN)C(=O)NC1CCNC(=O)C(C(C)O)NC(=O)C(CCN)NC(=O)C(CCN)NC(=O)C(CC(C)C)NC(=O)C(Cc2ccccc2)NC(=O)C(CCN)NC1=O)C(C)O (stereo not given) ({Octanoyl(6-Me)}-[Dab]T[Dab][Dab][Dab]FL[Dab][Dab]T; lactam 4-C; configuration not given here)', 'n'),
  ('COc1ccc([C@H]2COc3c(ccc(O)c3OC)C2)c(OC)c1O', 'n'),
  ('CCOc1ccc(C(=O)c2cc(O)c(OC)c(OC)c2O)cc1', 'n'),
  ('CCOc1ccc(C(=O)c2ccc(O)c(O)c2O)cc1', 'y'),
  ('COc1ccc(C(=O)c2ccccc2)c(O)c1O', 'y'),
  ('Cc1cc(=O)n(-c2ccccc2)n1C', 'n'),
  ('Cc1cc(C(C)(C)C)c(O)c(C)c1CC1=NCCN1', 'n'),
  ('CCN(CC)CCNC(=O)c1cc(Cl)c(N)cc1OC', 'n');

====

procedure.details: chemical genetic growth profiling, strain panel (AID 1159580);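 also: tested at 20 µM; growth read once vehicle control cultures reached saturation at 30 °C; 1 = growth at the plate median or of vehicle wells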
run.parameters: S. cerevisiae deletion strains, growth OD, locus YKL160W, strain elf1, stronger effect = lower value
Screen size: about 5,500 compounds; about 2,000 (36%) were called active. Roughly 18% stayed inconclusive and do not appear here. The list shows a part of the results.
Exam item: assign criterion met to entries whose normalized growth is below 1 and criterion not met to entries at or above 1. Note that a value of exactly 1 receives criterion not met.

INSERT INTO measurements (compound, label) VALUES
  ('CC(=O)O[C@@H]1CC[C@]2(C)C3CC[C@]4(C)C(=O)CCC4C3CC[C@H]2C1 (some centres undefined)', 'criterion not met'),
  ('OCCN1CCN(CCCN2c3ccccc3Sc3ccc(C(F)(F)F)cc32)CC1', 'criterion met');

====

procedure.details: chemical genetic growth profiling, strain panel (AID 1159580);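 also: tested at 20 µM; growth read once vehicle control cultures reached saturation at 30 °C; 1 = growth at the plate median or of vehicle wells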
run.parameters: S. cerevisiae deletion strains, growth OD, locus YPL051W, strain arl3, stronger effect = lower value
About 2,000 (36%) of roughly 5,500 compounds were called active. Another 18% or so got no clear call; they are omitted. This is one part of the list. Where a SMILES comes first, the peptide text is derived from it. Bridges are numbered along the chain shown (N, C = ends). Side-chain parts run from the residue outwards. [ ]: non-standard residue; d: D form. The star is where a group is joined. Octanoyl(6-Me) = CCC(C)CCCCC(=O)*; X1 = CCC(C)C(N)C1=NC(C(=O)*)CS1; Orn = NCCC[CH](N)C(=O)O; Dab = NCC[CH](N)C(=O)O
Exam item: assign MET to entries whose normalized growth is below 1 and NOT MET to entries at or above 1. Note that a value of exactly 1 receives NOT MET.

INSERT INTO results (molecule, label) VALUES
  ('CCC(C)CCCCC(=O)NC(CCN)C(=O)NC(C(=O)NC(CCN)C(=O)NC1CCNC(=O)C(C(C)O)NC(=O)C(CCN)NC(=O)C(CCN)NC(=O)C(CC(C)C)NC(=O)C(Cc2ccccc2)NC(=O)C(CCN)NC1=O)C(C)O (stereo unspecified) ({Octanoyl(6-Me)}-[Dab]T[Dab][Dab][Dab]FL[Dab][Dab]T; lactam 4-C; configuration not given here)', 'MET'),
  ('CC(=O)Oc1cccc2c1C(=O)c1c(OC(C)=O)cc(C(=O)O)cc1C2=O', 'MET'),
  ('CC(=O)[O][Hg][c]1ccccc1', 'MET'),
  ('CCOc1cccc(C(=O)c2ccc(O)c(O)c2O)c1', 'MET'),
  ('COc1c2c(cc3c1OCO3)C13C=C[C@H](OC)CC1N(C2)CC3O (stereo partly specified)', 'MET'),
  ('CC(=O)CC1CCCCN1 (stereo unspecified)', 'NOT MET'),
  ('COc1cc(/C=C/C(=O)N2CCC=CC2=O)cc(OC)c1OC', 'MET'),
  ('CCC(C)C(N)C1=NC(C(=O)NC(CC(C)C)C(=O)NC(CCC(=O)O)C(=O)NC(C(=O)NCCCCC2NC(=O)C(CC(N)=O)NC(=O)C(CC(=O)O)NC(=O)C(Cc3cnc[nH]3)NC(=O)C(Cc3ccccc3)NC(=O)C(C(C)CC)NC(=O)C(CCCN)NC2=O)C(C)CC)CS1 (stereo not drawn) (cyclo(DNK([Ile-Glu-Leu-X1])[Orn]IFH); configuration not given here)', 'NOT MET'),
  ('NC(=O)NO', 'NOT MET');

====

procedure.details: chemical genetic growth profiling, strain panel (AID 1159580);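 also: tested at 20 µM; growth read once vehicle control cultures reached saturation at 30 °C; 1 = growth at the plate median or of vehicle wells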
run.parameters: S. cerevisiae deletion strains, growth OD, locus YNR049C, strain mso1
The whole screen tested about 5,500 compounds, of which about 2,000 (36%) were called active. About 18% were inconclusive and are not listed. No stated cut-off is given here; in the data, active means normalized growth mostly below about 0.91 (no sharp cut-off); inconclusive means no clear call, values can overlap the other calls; inactive means mostly above about 0.92. The list shows a part of the results.
Classes used: active, inactive

INSERT INTO results (compound, label) VALUES
  ('CO[C@H]1C[C@H](O[C@H]2[C@H](C)[C@@H](OC3O[C@H](C)C[C@H](N(C)C)[C@H]3OC(C)=O)[C@@H](C)C[C@]3(CO3)C(=O)[C@H](C)[C@@H](OC(C)=O)[C@@H](C)[C@@H](C)OC(=O)[C@@H]2C)O[C@@H](C)[C@@H]1OC(C)=O (some centres undefined)', 'inactive'),
  ('Cc1cc(C(C)(C)C)c(O)c(C)c1CC1=NCCN1', 'inactive'),
  ('COc1cnc(NS(=O)(=O)c2ccc(N)cc2)nc1', 'inactive'),
  ('OC(c1cc(C(F)(F)F)nc2c(C(F)(F)F)cccc12)C1CCCCN1 (centres undefined)', 'inactive'),
  ('CN1C(=O)CCS(=O)(=O)C1c1ccc(Cl)cc1 (centres undefined)', 'inactive'),
  ('CC1(C)C=Cc2cc3ccc(=O)oc3cc2O1', 'inactive'),
  ('Cc1ccc(N(CC2=NCCN2)c2cccc(O)c2)cc1', 'inactive'),
  ('CCOc1ccc(C(=O)c2ccc(O)c(O)c2O)cc1', 'inactive'),
  ('O=C(NC1CCCCC1)NC1CCCCC1', 'inactive'),
  ('CC[C@@H](CO)NC(=O)[C@@H]1C=C2c3cccc4[nH]cc(c34)C[C@H]2N(C)C1', 'inactive'),
  ('COC(=O)C[C@H]1C(C)(C)[C@@H](O)[C@@H]2CC3=C4C=C(OC)O[C@@H](c5ccoc5)[C@]4(C)CCC3[C@@]1(C)C2=O (some centres undefined)', 'inactive'),
  ('CC(=O)[C@@]1(O)CCC2C3CCC4=CC(=O)CC[C@]4(C)C3CC[C@@]21C (some centres undefined)', 'inactive'),
  ('O=c1oc2c(O)c(O)cc3c(=O)oc4c(O)c(O)cc1c4c23', 'active'),
  ('CCOc1ccc(NC(C)=O)cc1', 'inactive'),
  ('COc1cc(NS(=O)(=O)c2ccc(N)cc2)ncn1', 'inactive'),
  ('CC(=O)Oc1cc2c(c(C)c1OC(C)=O)CC1OC13C2(C)CCC1(C)C2CC(C)(C(=O)O)CCC2(C)CCC13C (centres undefined)', 'inactive'),
  ('COC(=O)[C@]1(C)CC[C@]2(C)CC[C@]3(C)C4=CC=C5C(=CC(=O)C(O)=C5C)[C@]4(C)CC[C@@]3(C)[C@@H]2C1', 'active'),
  ('CC1=C(O)C(=O)C=C2C1=CC=C1[C@@]2(C)CC[C@@]2(C)[C@@H]3C[C@](C)(C(=O)O)CC[C@]3(C)CC[C@]12C', 'active'),
  ('Cc1cc(C(C)(C)C)cc(C)c1CC1=NCCN1', 'inactive');
